target: recombinant human Estrogen Receptor alpha ligand binding domain, residues 307-554 (ER alpha-LBD (GST)) (Homo sapiens); test: ERα binding assay (LanthaScreen TR-FRET competition); settings: TR-FRET competition with Fluormone ES2 tracer, 4 hours at room temperature; single experiment or average of two or more
Sequence (P03372 307-554): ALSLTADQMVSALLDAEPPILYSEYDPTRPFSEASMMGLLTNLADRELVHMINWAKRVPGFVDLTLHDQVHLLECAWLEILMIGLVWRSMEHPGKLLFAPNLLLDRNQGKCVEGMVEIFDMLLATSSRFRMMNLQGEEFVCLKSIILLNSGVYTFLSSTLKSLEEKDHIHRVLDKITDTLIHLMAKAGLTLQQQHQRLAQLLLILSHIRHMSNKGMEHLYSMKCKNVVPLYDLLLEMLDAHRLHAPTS
Property: log10 IC50; scope: individual molecules
Heads up: the numbers are on a log10 scale; they represent IC50 in nM.

Solved cases below.
INSERT INTO results (molecule, quantitative_readout) VALUES
  ('Cc1ncsc1-c1ccc(CNC(=O)[C@@H]2C[C@@H](O)CN2C(=O)[C@@H](NC(=O)C(F)(F)OCCOCCCCOc2cc(F)c([C@@H]3c4[nH]c5ccccc5c4C[C@@H](C)N3CC(C)(C)F)c(F)c2)C(C)(C)C)cc1 [Example 121]', -0.15),
  ('Cc1ncsc1-c1ccc(CNC(=O)[C@@H]2C[C@@H](O)CN2C(=O)[C@@H](NC(=O)COCCCCCN(C)CCOc2cc(F)c([C@@H]3c4[nH]c5ccccc5c4C[C@@H](C)N3CC(C)(C)F)c(F)c2)C(C)(C)C)cc1 [Example 49]', 0.00),
  ('Cc1ncsc1-c1ccc(CNC(=O)[C@@H]2C[C@@H](O)CN2C(=O)[C@@H](NC(=O)COCCOCCOCCOc2cc(F)c([C@@H]3c4[nH]c5ccccc5c4C[C@@H](C)N3CC(F)(F)F)c(F)c2)C(C)(C)C)cc1 [Example 95]', 0.08),
  ('Cc1ncsc1-c1ccc(CNC(=O)[C@@H]2C[C@@H](O)CN2C(=O)[C@@H](NC(=O)COCCCCCN2CC(Oc3cc(F)c([C@@H]4c5[nH]c6ccccc6c5C[C@@H](C)N4CC(C)(C)F)c(F)c3)C2)C(C)(C)C)cc1 [Example 46]', -0.10),
  ('Cc1ncsc1-c1ccc(CNC(=O)[C@@H]2C[C@@H](O)CN2C(=O)[C@@H](NC(=O)COCCCCCOCCOc2ccc([C@@H]3c4[nH]c5ccccc5c4C[C@@H](C)N3CC(F)F)nc2)C(C)(C)C)cc1 [Example 10]', 1.59),
  ('Cc1ncsc1-c1ccc(CNC(=O)[C@@H]2C[C@@H](O)CN2C(=O)[C@@H](NC(=O)COCCOCCOCCOc2cc(F)c([C@@H]3c4[nH]c5ccccc5c4C[C@@H](C)N3C[C@H](C)CO)c(F)c2)C(C)(C)C)cc1 [Example 101]', 0.52),
  ('Cc1ncsc1-c1ccc(CNC(=O)[C@@H]2C[C@@H](O)CN2C(=O)[C@@H](NC(=O)COCCCCCCOc2cc(F)c([C@@H]3c4[nH]c5ccccc5c4C[C@@H](C)N3CC(C)(C)F)c(F)c2)C(C)(C)C)cc1 [Example 51]', 0.30),
  ('Cc1ncsc1-c1ccc(CNC(=O)[C@@H]2C[C@@H](O)CN2C(=O)[C@@H](NC(=O)COCCCCCCCOc2cc(F)c([C@@H]3c4[nH]c5ccccc5c4C[C@@H](C)N3CC(C)(C)F)c(F)c2)C(C)(C)C)cc1 [Example 7]', 0.08),
  ('Cc1ncsc1-c1ccc(CNC(=O)[C@@H]2C[C@@H](O)CN2C(=O)[C@@H](NC(=O)CCCOc2ccc(COc3cc(F)c([C@@H]4c5[nH]c6ccccc6c5C[C@@H](C)N4CC(C)(C)F)c(F)c3)nc2)C(C)(C)C)cc1 [Example 161]', -0.15),
  ('Cc1ncsc1-c1ccc([C@H](C)NC(=O)[C@@H]2C[C@@H](O)CN2C(=O)[C@@H](NC(=O)COCCOCCCCCOc2cc(F)c([C@@H]3c4[nH]c5ccccc5c4C[C@@H](C)N3CC(C)(C)F)c(F)c2)C(C)(C)C)cc1 [Example 156]', -0.22);

Check the records and state log10 IC50 for Cc1ncsc1-c1ccc(CNC(=O)[C@@H]2C[C@@H](O)CN2C(=O)[C@@H](NC(=O)COCCO[C@@H](C)[C@H](C)OCCOc2cc(F)c([C@@H]3c4[nH]c5ccccc5c4C[C@@H](C)N3CC(C)(C)F)c(F)c2)C(C)(C)C)cc1 [Example 82]
-0.05
